studySystem: SRPK2 (human) (UniProt P78362)
Sequence (P78362 whole entry, looked up): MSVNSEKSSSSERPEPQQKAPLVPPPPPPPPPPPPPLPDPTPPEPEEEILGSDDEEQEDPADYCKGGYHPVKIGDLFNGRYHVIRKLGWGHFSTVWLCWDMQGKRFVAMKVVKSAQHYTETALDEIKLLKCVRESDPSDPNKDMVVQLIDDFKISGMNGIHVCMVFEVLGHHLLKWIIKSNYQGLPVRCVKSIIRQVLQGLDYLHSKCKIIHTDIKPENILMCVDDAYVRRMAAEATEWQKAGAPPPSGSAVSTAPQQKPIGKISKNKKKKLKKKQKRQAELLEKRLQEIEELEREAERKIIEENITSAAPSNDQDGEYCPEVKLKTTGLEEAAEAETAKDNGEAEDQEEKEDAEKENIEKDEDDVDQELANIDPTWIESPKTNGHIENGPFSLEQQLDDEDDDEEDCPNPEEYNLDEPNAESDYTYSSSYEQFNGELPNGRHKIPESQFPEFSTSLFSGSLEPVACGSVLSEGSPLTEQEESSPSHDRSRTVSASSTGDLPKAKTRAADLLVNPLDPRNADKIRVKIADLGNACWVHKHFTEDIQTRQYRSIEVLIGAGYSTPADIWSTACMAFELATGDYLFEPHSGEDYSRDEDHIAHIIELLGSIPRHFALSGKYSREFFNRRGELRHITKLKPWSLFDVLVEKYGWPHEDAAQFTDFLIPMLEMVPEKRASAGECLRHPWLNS
experimentalProtocol: radiometric filter-binding kinase assay, Kinase HotSpot
testContext: compound 0.5 µM; ATP 10 µM
measuredQuantity: residual activity

- Nc1ccc2ncnc(NCCc3ccc(Oc4ccccc4)cc3)c2c1: 95.3%
- O=S(=O)(c1cccc2cnccc12)N1CCCNCC1: 83.9%
- Cc1ccc(NC2=CC(=O)c3sc(C)nc3C2=O)cc1: 101%
- O=c1cc(N2CCOCC2)oc2c1ccc1ccccc12: 100%

###

studySystem: INSRR (human) (UniProt P14616)
Sequence (P14616 whole entry, looked up): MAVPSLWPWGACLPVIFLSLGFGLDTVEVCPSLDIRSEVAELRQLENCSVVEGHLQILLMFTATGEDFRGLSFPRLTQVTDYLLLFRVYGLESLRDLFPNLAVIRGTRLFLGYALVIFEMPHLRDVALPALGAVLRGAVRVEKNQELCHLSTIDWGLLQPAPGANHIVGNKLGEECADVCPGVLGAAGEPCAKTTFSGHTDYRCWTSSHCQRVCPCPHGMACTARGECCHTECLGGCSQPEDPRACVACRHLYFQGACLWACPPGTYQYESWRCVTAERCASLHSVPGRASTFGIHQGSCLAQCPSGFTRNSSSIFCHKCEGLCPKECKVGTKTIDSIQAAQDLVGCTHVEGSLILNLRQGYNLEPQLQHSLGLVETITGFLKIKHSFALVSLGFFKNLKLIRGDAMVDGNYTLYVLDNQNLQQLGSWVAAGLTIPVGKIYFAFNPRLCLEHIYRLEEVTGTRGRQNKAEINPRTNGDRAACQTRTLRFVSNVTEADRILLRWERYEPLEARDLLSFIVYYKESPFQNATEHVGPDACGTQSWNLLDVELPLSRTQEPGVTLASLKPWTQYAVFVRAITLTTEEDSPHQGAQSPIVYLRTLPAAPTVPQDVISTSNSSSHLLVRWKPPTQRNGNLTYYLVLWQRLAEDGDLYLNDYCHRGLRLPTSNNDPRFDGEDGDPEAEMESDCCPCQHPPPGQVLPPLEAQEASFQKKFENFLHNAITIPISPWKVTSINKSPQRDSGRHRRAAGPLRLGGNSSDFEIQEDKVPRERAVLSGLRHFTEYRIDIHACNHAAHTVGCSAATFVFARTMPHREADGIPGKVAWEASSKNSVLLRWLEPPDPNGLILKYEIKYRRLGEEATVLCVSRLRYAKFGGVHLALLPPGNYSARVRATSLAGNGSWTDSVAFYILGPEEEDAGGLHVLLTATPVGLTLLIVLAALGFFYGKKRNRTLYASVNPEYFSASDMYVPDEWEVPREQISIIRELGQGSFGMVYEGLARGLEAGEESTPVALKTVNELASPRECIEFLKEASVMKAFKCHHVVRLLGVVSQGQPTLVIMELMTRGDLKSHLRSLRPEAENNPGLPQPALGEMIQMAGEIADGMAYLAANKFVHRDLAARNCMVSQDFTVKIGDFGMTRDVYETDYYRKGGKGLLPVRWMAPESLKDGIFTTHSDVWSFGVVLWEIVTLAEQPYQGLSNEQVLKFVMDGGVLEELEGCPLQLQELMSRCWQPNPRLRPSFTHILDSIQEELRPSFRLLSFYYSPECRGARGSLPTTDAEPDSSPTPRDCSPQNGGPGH
experimentalProtocol: radiometric filter-binding kinase assay, Kinase HotSpot
testContext: compound 0.5 µM; ATP 10 µM
measuredQuantity: residual activity (%)

• CCN(CC)CCNC(=O)c1c(C)[nH]c(/C=C2\C(=O)Nc3ccc(Cl)cc32)c1C = 4.33
• CNC(=O)c1cc(Oc2ccc(NC(=O)Nc3ccc(Cl)c(C(F)(F)F)c3)cc2)ccn1 = 104
• Nc1ccc2ncnc(NCCc3ccc(Oc4ccccc4)cc3)c2c1 = 98.7
• O=C(Nc1cccc(Nc2nccc(Nc3cccc(C(F)(F)F)c3)n2)c1)C1CC1 = 89.9
• O=C1NC(=O)/C(=C/c2ccc3c(c2)OC(F)(F)O3)S1 = 110
• CCN(CC)CCNC(=O)c1c(C)[nH]c(/C=C2\C(=O)Nc3ccc(F)cc32)c1C = 21.7
• CC(C)N(CCC(=O)c1ccc2ccccc2c1)Cc1ccccc1 = 90.1
• O=S(=O)(c1cccc2cnccc12)N1CCCNCC1 = 99.7
• N#C/C(=C(/N)Sc1ccc(N)cc1)c1ccccc1C(F)(F)F = 88.1
• O=C1Nc2ccc(Cl)cc2/C1=C/c1cc(Cl)c(O)c(Cl)c1 = 100
• Nc1cccc(-c2cc3c(Oc4cccc(O)c4)ncnc3[nH]2)c1 = 96.3
• Cc1ccc(S(=O)(=O)/C=C/C#N)cc1 = 98
• COc1ccc2c(c[n+](C)c3c4cc5c(cc4ccc23)OCO5)c1OC = 91.8
• CC[n+]1c(/C=C/N(C)c2ccccc2)n(-c2ccccc2)c2ccc(-c3nc4ccccc4s3)cc21 = 101
• CCC(=O)Nc1ccc2ncnc(Nc3cccc(Br)c3)c2c1 = 98.4
• CC#CC(=O)Nc1cc2c(Nc3ccc(F)c(Cl)c3)ncnc2cn1 = 101
• CC(=O)c1ccc(N2CCOCC2)cc1O = 96.7
• CCOC(=O)c1c(C)[nH]c(/C=C2\C(=O)Nc3ccccc32)c1C = 93.8
• Nc1ncnc2[nH]nc(Nc3ccc(F)cc3)c12 = 96.9
• c1ccc(-c2n[nH]cc2-c2ccnc3ccccc23)nc1 = 101
• c1ccc(-c2n[nH]c3c2oc2ccccc23)cc1 = 104
• COc1cc2ncnc(Nc3cccc(Cl)c3)c2cc1OC = 99

###

studySystem: TYK2 JH1 catalytic (human)
experimentalProtocol: radiometric filter-binding kinase assay, Kinase HotSpot
testContext: compound 0.5 µM; ATP 10 µM
measuredQuantity: residual activity (%)

- Nc1ncnc2[nH]nc(Nc3ccc(F)cc3)c12: 92.3
- Nc1ccc2ncnc(NCCc3ccc(Oc4ccccc4)cc3)c2c1: 99.9
- CCC(=O)Nc1ccc2ncnc(Nc3cccc(Br)c3)c2c1: 90.2
- CCN(CC)CCNC(=O)c1c(C)[nH]c(/C=C2\C(=O)Nc3ccc(Cl)cc32)c1C: 30.8
- COc1cc2ncnc(Nc3cccc(Cl)c3)c2cc1OC: 98.1
- COc1ccc(COc2ccc(Cc3cnc(N)nc3N)cc2OC)cc1: 97.6
- Oc1cccc(-c2nc(N3CCOCC3)c3oc4ncccc4c3n2)c1: 73.6
- CCCC(=O)Oc1ccc2[nH]c(C(=O)c3cc4ccccc4[nH]3)cc2c1: 90.7

###

Entries annotated with measured residual activity
studySystem: PRKCB1 (human) (UniProt P05771)
Sequence (P05771 whole entry, looked up): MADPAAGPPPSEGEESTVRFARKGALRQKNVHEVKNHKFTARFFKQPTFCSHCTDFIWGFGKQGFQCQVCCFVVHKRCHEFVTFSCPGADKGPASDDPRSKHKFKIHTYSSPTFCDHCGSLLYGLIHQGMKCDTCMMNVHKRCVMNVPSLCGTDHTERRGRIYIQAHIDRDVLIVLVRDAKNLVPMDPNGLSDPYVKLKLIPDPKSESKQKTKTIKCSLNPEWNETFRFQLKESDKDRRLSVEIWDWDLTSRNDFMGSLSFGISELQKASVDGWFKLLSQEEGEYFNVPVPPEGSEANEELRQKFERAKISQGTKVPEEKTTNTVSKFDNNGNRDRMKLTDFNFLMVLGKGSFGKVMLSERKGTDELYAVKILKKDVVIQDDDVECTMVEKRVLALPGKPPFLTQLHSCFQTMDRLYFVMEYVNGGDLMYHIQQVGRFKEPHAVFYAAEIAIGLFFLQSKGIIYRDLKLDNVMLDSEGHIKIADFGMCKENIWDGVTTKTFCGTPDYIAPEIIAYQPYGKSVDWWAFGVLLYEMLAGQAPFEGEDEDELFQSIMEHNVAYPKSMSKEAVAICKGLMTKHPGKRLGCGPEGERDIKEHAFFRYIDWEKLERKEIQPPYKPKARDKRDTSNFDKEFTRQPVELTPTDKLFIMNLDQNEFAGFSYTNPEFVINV
experimentalProtocol: radiometric filter-binding kinase assay, Kinase HotSpot
testContext: compound 0.5 µM; ATP 10 µM
measuredQuantity: residual activity (%)

- CO[C@H]1CC2CC[C@@H](C)[C@@](O)(O2)C(=O)C(=O)N2CCCC[C@H]2C(=O)OC([C@H](C)C[C@@H]2CC[C@@H](O)[C@H](OC)C2)CC(=O)[C@H](C)/C=C(\C)[C@@H](O)[C@@H](OC)C(=O)[C@H](C)C[C@H](C)/C=C/C=C/C=C/1C (stereo partly drawn): 102
- O=C1NC(=O)/C(=C/c2ccc3c(c2)OC(F)(F)O3)S1: 97.7
- O=C1Nc2ccc(Cl)cc2/C1=C/c1cc(Cl)c(O)c(Cl)c1: 97.3
- CCN(CC)C(=O)c1ccc(Nc2nc(OCC3CCCCC3)c3nc[nH]c3n2)cc1: 103
- Nc1cccc(-c2cc3c(Oc4cccc(O)c4)ncnc3[nH]2)c1: 113
- Cc1ccc(S(=O)(=O)/C=C/C#N)cc1: 101
- COc1ccc2c(c[n+](C)c3c4cc5c(cc4ccc23)OCO5)c1OC: 100
- c1ccc(-c2n[nH]cc2-c2ccnc3ccccc23)nc1: 102

###

studySystem: MST4 (human)
experimentalProtocol: radiometric filter-binding kinase assay, Kinase HotSpot
testContext: compound 0.5 µM; ATP 10 µM
Here, each record is paired with measured residual activity data.
measuredQuantity: residual activity (%)

- CCN(CC)CCNC(=O)c1c(C)[nH]c(/C=C2\C(=O)Nc3ccc(F)cc32)c1C: 110
- CCC(=O)Nc1ccc2ncnc(Nc3cccc(Br)c3)c2c1: 97.6
- COc1ccc2c(c[n+](C)c3c4cc5c(cc4ccc23)OCO5)c1OC: 89.4
- CCCC(=O)Oc1ccc2[nH]c(C(=O)c3cc4ccccc4[nH]3)cc2c1: 94.8
- CC(=O)c1ccc(N2CCOCC2)cc1O: 99.5
- Cc1[nH]c(/C=C2\C(=O)Nc3ccc(S(=O)(=O)N(C)c4cccc(Cl)c4)cc32)c(C)c1C(=O)N1CCN(C)CC1: 63.5
- O=C1NC(=O)/C(=C/c2ccc3c(c2)OC(F)(F)O3)S1: 86.8
- Cc1ccc(Nc2nccc(N(C)c3ccc4c(C)n(C)nc4c3)n2)cc1S(N)(=O)=O: 108
- CO[C@H]1CC2CC[C@@H](C)[C@@](O)(O2)C(=O)C(=O)N2CCCC[C@H]2C(=O)OC([C@H](C)C[C@@H]2CC[C@@H](O)[C@H](OC)C2)CC(=O)[C@H](C)/C=C(\C)[C@@H](O)[C@@H](OC)C(=O)[C@H](C)C[C@H](C)/C=C/C=C/C=C/1C (stereo not given in full): 113
- CC#CC(=O)Nc1cc2c(Nc3ccc(F)c(Cl)c3)ncnc2cn1: 103
- Nc1cccc(-c2cc3c(Oc4cccc(O)c4)ncnc3[nH]2)c1: 83.8
- Oc1cccc(-c2nc(N3CCOCC3)c3oc4ncccc4c3n2)c1: 98.6
- Cc1ccc(NC2=CC(=O)c3sc(C)nc3C2=O)cc1: 86.6
- O=c1cc(N2CCOCC2)oc2c1ccc1ccccc12: 93.2
- COc1ccc(COc2ccc(Cc3cnc(N)nc3N)cc2OC)cc1: 95.5
- N#C/C(=C(/N)Sc1ccc(N)cc1)c1ccccc1C(F)(F)F: 97.2
- COc1cc2ncnc(Nc3cccc(Cl)c3)c2cc1OC: 108
- c1ccc(-c2n[nH]c3c2oc2ccccc23)cc1: 90.6
- O=C(Nc1cccc(Nc2nccc(Nc3cccc(C(F)(F)F)c3)n2)c1)C1CC1: 84.4
- N#CC(C#N)=C(N)/C(C#N)=C/c1ccc(O)cc1: 101
- O=S(=O)(c1cccc2cnccc12)N1CCCNCC1: 90
- CC(C)N(CCC(=O)c1ccc2ccccc2c1)Cc1ccccc1: 108
- O=C1NC(=O)C(c2cn(CCCn3ccnc3)c3ccccc23)=C1Nc1ccccc1: 22.2
- Nc1ncnc2[nH]nc(Nc3ccc(F)cc3)c12: 91
- CC[n+]1c(/C=C/N(C)c2ccccc2)n(-c2ccccc2)c2ccc(-c3nc4ccccc4s3)cc21: 93.7

###

studySystem: IRAK1 (human) (UniProt P51617)
Sequence (P51617 whole entry, looked up): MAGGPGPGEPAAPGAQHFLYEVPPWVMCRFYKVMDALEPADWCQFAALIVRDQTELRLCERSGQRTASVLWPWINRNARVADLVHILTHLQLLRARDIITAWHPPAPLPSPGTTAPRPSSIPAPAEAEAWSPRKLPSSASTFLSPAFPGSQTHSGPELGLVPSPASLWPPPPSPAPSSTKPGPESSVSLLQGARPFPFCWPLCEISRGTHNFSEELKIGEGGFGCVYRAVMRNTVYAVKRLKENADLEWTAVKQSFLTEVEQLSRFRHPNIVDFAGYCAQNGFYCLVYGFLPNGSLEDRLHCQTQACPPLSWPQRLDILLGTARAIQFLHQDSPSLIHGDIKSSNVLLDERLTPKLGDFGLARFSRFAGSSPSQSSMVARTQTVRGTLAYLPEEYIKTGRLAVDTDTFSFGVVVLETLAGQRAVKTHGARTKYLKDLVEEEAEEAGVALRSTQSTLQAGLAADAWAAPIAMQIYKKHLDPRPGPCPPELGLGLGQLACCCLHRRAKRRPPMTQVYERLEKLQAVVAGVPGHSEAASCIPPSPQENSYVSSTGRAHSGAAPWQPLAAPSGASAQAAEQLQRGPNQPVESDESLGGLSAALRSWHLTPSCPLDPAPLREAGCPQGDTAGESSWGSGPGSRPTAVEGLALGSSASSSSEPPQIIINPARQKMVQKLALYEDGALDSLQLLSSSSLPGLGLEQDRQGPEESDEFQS
experimentalProtocol: radiometric filter-binding kinase assay, Kinase HotSpot
testContext: compound 0.5 µM; ATP 10 µM
measuredQuantity: residual activity (%)

- CO[C@H]1CC2CC[C@@H](C)[C@@](O)(O2)C(=O)C(=O)N2CCCC[C@H]2C(=O)OC([C@H](C)C[C@@H]2CC[C@@H](O)[C@H](OC)C2)CC(=O)[C@H](C)/C=C(\C)[C@@H](O)[C@@H](OC)C(=O)[C@H](C)C[C@H](C)/C=C/C=C/C=C/1C (stereo partly drawn): 118
- Cc1ccc(S(=O)(=O)/C=C/C#N)cc1: 103
- COc1ccc(COc2ccc(Cc3cnc(N)nc3N)cc2OC)cc1: 123

###

Known residual activity of a selection of molecules
studySystem: DAPK3 (human)
experimentalProtocol: radiometric filter-binding kinase assay, Kinase HotSpot
testContext: compound 0.5 µM; ATP 10 µM
measuredQuantity: residual activity

* Cc1ccc(Nc2nccc(N(C)c3ccc4c(C)n(C)nc4c3)n2)cc1S(N)(=O)=O | 92.3%
* O=c1cc(N2CCOCC2)oc2c1ccc1ccccc12 | 94.6%
* CCC(=O)Nc1ccc2ncnc(Nc3cccc(Br)c3)c2c1 | 104%
* O=C1Nc2ccc(Cl)cc2/C1=C/c1cc(Cl)c(O)c(Cl)c1 | 82.3%
* COc1cc2ncnc(Nc3cccc(Cl)c3)c2cc1OC | 94.6%
* CC(C)N(CCC(=O)c1ccc2ccccc2c1)Cc1ccccc1 | 107%
* CNC(=O)c1cc(Oc2ccc(NC(=O)Nc3ccc(Cl)c(C(F)(F)F)c3)cc2)ccn1 | 92.9%
* N#CC(C#N)=C(N)/C(C#N)=C/c1ccc(O)cc1 | 91.1%
* Cc1[nH]c(/C=C2\C(=O)Nc3ccc(S(=O)(=O)N(C)c4cccc(Cl)c4)cc32)c(C)c1C(=O)N1CCN(C)CC1 | 106%
* O=C1NC(=O)C(c2cn(CCCn3ccnc3)c3ccccc23)=C1Nc1ccccc1 | 104%
* Oc1cccc(-c2nc(N3CCOCC3)c3oc4ncccc4c3n2)c1 | 93.1%
* Nc1ncnc2[nH]nc(Nc3ccc(F)cc3)c12 | 124%
* Nc1ncnc2c1c(-c1ccc(Oc3ccccc3)cc1)cn2C1CCCC1 | 114%
* Cc1ccc(NC2=CC(=O)c3sc(C)nc3C2=O)cc1 | 104%
* O=S(=O)(c1cccc2cnccc12)N1CCCNCC1 | 93%
* N#C/C(=C(/N)Sc1ccc(N)cc1)c1ccccc1C(F)(F)F | 102%

Cited source for all entries: the kinase profiling compilation of Christmann-Franck et al. (2016)
